The following molecules are shown together with reported remaining at 0.5 h values.
Test: Metabolic stability in mouse liver microsomes assessed as substrate remaining preincubated for 5 mins followed by NADPH addition and measured upto 30 mins by LC-MS/MS assay
Assay type: ADME, Microsome
Conditions: time < 35 min, read-out: Stability
parameter-measured: remaining at 0.5 h (%)

- O=C(O)[C@H](C1CCCCC1)N1C(=O)/C(=C/c2ccc(-c3ccc(F)c(C(F)(F)F)c3)cc2)SC1=S: 101
- CCCC[C@@H](C(=O)O)N1C(=O)/C(=C/c2ccc(-c3ccc(F)c(C(F)(F)F)c3)cc2)SC1=S: 101
- CCCC[C@@H](C(=O)O)N1C(=O)/C(=C/c2ccc(-c3cccc(C(F)(F)F)c3)cc2)SC1=S: 101
- O=C(O)[C@H](C1CCCCC1)N1C(=O)/C(=C/c2ccc(-c3cccc(C(F)(F)F)c3)cc2)SC1=S: 80
